Taken from patent US9271969B2.

Here, each record is paired with measured pIC50 data.
- SYSTEM: human DGAT1 (Homo sapiens (Human))
- Sequence (O75907 whole entry): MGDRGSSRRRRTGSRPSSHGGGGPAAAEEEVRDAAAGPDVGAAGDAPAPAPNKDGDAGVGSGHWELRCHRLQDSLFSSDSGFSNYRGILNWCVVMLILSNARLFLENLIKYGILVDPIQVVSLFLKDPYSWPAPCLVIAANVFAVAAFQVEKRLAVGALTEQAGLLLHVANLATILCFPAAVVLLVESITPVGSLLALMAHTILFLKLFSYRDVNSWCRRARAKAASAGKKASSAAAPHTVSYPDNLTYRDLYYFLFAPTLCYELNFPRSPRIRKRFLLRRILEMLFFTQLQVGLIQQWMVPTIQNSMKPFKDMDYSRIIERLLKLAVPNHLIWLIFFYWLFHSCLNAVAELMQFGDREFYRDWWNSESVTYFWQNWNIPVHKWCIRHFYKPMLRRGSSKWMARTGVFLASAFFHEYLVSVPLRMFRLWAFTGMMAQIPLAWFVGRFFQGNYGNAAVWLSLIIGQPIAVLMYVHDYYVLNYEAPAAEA
- MEASUREMENT PROTOCOL: biochemical
pIC50: −log10 of the molar value.

{"columns": ["SMILES CODE", "pIC50"],
 "data": [
  ["O=C(O)C[C@H]1CC[C@H](c2ccc(-c3ccc4nc(C(=O)Nc5cc(F)ccc5F)cn4c3)cc2)CC1", "> 8.00"],
  ["Cc1ccccc1CNC(=O)c1cn2cc(-c3ccc([C@H]4CC[C@H](CC(=O)O)CC4)cc3)ccc2n1", "> 8.00"],
  ["O=C(O)C[C@H]1CC[C@H](c2ccc(-c3ccc4nc(C(=O)Nc5ccccc5F)cn4c3)cc2)CC1", "> 6.70"],
  ["COc1ccccc1NC(=O)c1cn2cc(-c3ccc([C@H]4CC[C@H](CC(=O)O)CC4)cc3)ccc2n1", "> 7.00"],
  ["O=C(O)C[C@H]1CC[C@H](c2ccc(-c3cn4cc(C(=O)NCc5ccc6c(c5)OCO6)nc4s3)cc2)CC1", "> 7.00"],
  ["O=C(O)C[C@H]1CC[C@H](c2ccc(-c3ccc4nc(C(=O)Nc5ccc(OC(F)(F)F)cc5)cn4c3)cc2)CC1", "> 8.00"],
  ["O=C(O)C[C@H]1CC[C@H](c2ccc(-c3ccc4nc(C(=O)Nc5ccccc5C(F)(F)F)cn4c3)cc2)CC1", "> 6.82"]
]}

----------
- SYSTEM: human DGAT1 (Homo sapiens (Human))
- MEASUREMENT PROTOCOL: biochemical
pIC50: −log10 of the molar value.
Measured pIC50, listed per entry.

{"columns": ["SMILES CODE", "pIC50"],
 "data": [
  ["COc1ccc(CNC(=O)c2cn3cc(-c4ccc([C@H]5CC[C@H](CC(=O)O)CC5)cc4)sc3n2)cc1", "> 8.00"],
  ["O=C(O)C[C@H]1CC[C@H](c2ccc(-c3ccc4nc(C(=O)Nc5ccc(F)cc5C(F)(F)F)cn4c3)cc2)CC1", "> 6.60"],
  ["O=C(O)C[C@H]1CC[C@H](c2ccc(-c3ccc4nc(C(=O)NCc5ccc(F)c(OC(F)(F)F)c5)cn4c3)cc2)CC1", "> 7.12"],
  ["O=C(O)C[C@H]1CC[C@H](c2ccc(-c3ccc4nc(C(=O)NCc5ccc(C(F)(F)F)c(F)c5)cn4c3)cc2)CC1", "> 7.30"],
  ["Cc1cccc(C)c1NC(=O)c1cn2cc(-c3ccc([C@H]4CC[C@H](CC(=O)O)CC4)cc3)ccc2n1", "> 6.70"],
  ["O=C(O)C[C@H]1CC[C@H](c2ccc(-c3ccc4nc(C(=O)NCc5ccc(OC(F)(F)F)cc5)cn4c3)cc2)CC1", "> 8.00"],
  ["COc1ccc(CNC(=O)c2cn3cc(-c4ccc([C@H]5CC[C@H](CC(=O)O)CC5)cc4)ccc3n2)cc1", "> 7.60"],
  ["O=C(O)C[C@H]1CC[C@H](c2ccc(-c3ccc4nc(C(=O)Nc5cc(F)c(F)c(F)c5)cn4c3)cc2)CC1", "> 9.00"]
]}
